- study.system: Peroxisome proliferator-activated receptor gamma (Homo sapiens, UniProt P37231)
- Sequence (P37231 whole entry): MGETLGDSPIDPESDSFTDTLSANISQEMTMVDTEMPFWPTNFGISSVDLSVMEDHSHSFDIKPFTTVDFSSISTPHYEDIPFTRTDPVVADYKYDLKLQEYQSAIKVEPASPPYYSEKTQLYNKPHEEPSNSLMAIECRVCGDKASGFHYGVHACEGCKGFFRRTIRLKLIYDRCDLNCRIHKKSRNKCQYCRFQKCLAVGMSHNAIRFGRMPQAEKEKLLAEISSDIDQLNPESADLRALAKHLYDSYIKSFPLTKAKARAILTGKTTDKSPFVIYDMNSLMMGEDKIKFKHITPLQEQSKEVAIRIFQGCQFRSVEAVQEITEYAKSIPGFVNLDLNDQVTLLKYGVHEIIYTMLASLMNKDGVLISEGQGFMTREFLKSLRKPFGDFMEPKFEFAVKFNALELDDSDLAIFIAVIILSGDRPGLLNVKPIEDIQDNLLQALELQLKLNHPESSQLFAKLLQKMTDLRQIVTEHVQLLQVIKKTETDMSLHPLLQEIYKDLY
- assay.info: Effective concentration against human PPAR-gamma in Gal4 transactivation assay; 30% response at 3 uM
- Format: functional
pEC50: −log10 of the molar value.
Task for the reader: assign each of the following compounds its reported pEC50.

Request body: readout pEC50, system Peroxisome proliferator-activated receptor gamma (Homo sapiens, UniProt P37231), query CC[C@@]1(C(=O)O)Cc2cc(OCCCOc3ccc(OC(F)(F)F)cc3Cl)ccc2O1 . Return the value.
< 5.52

Could you do the same for CCC1(C(=O)O)Cc2cc(OCCCOc3ccc(SC(F)(F)F)cc3Cl)ccc2O1 (racemic) , please?
< 5.52
